B1: SLC35F2 (parent)
chain: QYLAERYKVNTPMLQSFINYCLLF

Variants of: B1
Assay: protein stability index of a GFP-peptide fusion (GPS, HEK-293T) (PSI 1-6); higher = more stable;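 further: lentivirally expressed fusions sorted by FACS into six bins by GFP to DsRed ratio, PSI derived from sequencing read proportions per bin multiplied by bin number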
Details: c terminus: a fixed tail appended
metric: protein stability index
Keep it simple and answer with nothing but the number.

Below are worked cases with known answers.
[
  {
    "mutationCode": "Y20Q",
    "protein stability index": 2.56
  },
  {
    "mutationCode": "C21M",
    "protein stability index": 2.52
  },
  {
    "mutationCode": "R6T",
    "protein stability index": 2.97
  },
  {
    "mutationCode": "E5S",
    "protein stability index": 2.14
  },
  {
    "mutationCode": "N19R",
    "protein stability index": 2.35
  }
]

Could you tell me which protein stability index is on file for E5W ?
2.54

Would you mind telling me what protein stability index value was observed for Q15E ?
3.23

Recorded protein stability index for C21T , please?
2.11

Which protein stability index is reported for this variant? P12W
1.29

I am curious: what protein stability index value has been reported for A4W ?
2.53

Give the measured protein stability index of F17G .
2.45
